- TARGET SYSTEM: GSK3α (GST-full length GSK3α) (Homo sapiens (Human), UniProt P49840)
- Sequence (P49840 whole entry): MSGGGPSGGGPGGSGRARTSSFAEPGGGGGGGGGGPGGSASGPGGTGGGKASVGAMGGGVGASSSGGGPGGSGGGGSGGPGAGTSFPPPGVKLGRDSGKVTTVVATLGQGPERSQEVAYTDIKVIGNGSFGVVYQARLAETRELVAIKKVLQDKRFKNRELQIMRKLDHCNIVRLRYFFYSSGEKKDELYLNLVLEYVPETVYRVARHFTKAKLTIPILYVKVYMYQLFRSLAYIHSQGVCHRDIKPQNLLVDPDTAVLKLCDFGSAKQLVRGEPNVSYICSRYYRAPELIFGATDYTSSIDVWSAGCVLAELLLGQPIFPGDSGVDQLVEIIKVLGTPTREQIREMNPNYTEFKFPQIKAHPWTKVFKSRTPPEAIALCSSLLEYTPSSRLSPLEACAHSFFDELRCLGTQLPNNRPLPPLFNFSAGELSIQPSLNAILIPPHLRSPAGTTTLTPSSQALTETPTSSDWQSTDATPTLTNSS
- ASSAY DETAILS: GSK3α TR-FRET kinase assay
- Format: biochemical
- APPLIED CONDITIONS: read-out: GSK3-A (TR-FRET 1 mM ATP); GMean; IC50; 1 mM ATP; geometric mean
- Method: TR-FRET Assay: The assay was performed in a white, 384 well, low volume, flat bottom plate (Grenier). After a 30 minute preincubation in assay buffer with the indicated concentration of compound, the kinase activity was initiated by the addition of the substrates. […] After 60 min at room temperature the plate was read on Envision plate reader using Ex: 340 nm, Em: 615 nm and […]. The normalized 665/615 Signal ratio versus log compound concentration was analyzed by XLFIT to yield IC50 values.
Items are presented alongside their recorded IC50.

Some entries whose results are on file:
> print(dat)
                                   compound                             target.system  readout.name          result
1  CC[C@]1(c2cccc(-c3c(C)cnn3C)c2)C2=C(CC(C)(C)NC2=O)Nc2n[nH]cc21 [Compound 952021]  GSK3α (GST-full length GSK3α) (Homo sapiens (Human), UniProt P49840)          IC50  100 to 1000 nM
2  CC[C@@]1(c2cccc(-c3cc(C)ncc3F)c2)C2=C(CC(C)(C)NC2=O)Nc2n[nH]c(C(F)(F)F)c21 [Compound 949650]  GSK3α (GST-full length GSK3α) (Homo sapiens (Human), UniProt P49840)          IC50  100 to 1000 nM
3  CCC1(c2cccc(-c3cn(C)nc3C)c2)C2=C(CC(C)(C)NC2=O)Nc2n[nH]c(C(F)(F)F)c21 (centres unmarked) [Compound 948314]  GSK3α (GST-full length GSK3α) (Homo sapiens (Human), UniProt P49840)          IC50        ≤ 100 nM
4  CCC1(c2cccc(-c3cnn(C)c3C)c2)C2=C(CC(C)(C)NC2=O)Nc2n[nH]c(C(F)(F)F)c21 (centres unmarked) [Compound 947403]  GSK3α (GST-full length GSK3α) (Homo sapiens (Human), UniProt P49840)          IC50        ≤ 100 nM

Sample CN1CC2(C3=C(CC(C)(C)CC3=O)Nc3n[nH]c(CC(C)(C)C)c32)c2ccccc21 (centres unmarked) [Compound 125978] — what was its IC50?
1000 to 5000 nM

Another compound: CCC1(c2cccc(-c3ccnc4c3CCC4)c2)C2=C(CC(C)(C)CC2=O)Nc2n[nH]cc21 (centres unmarked) [Compound 945606]
100 to 1000 nM

Another compound: CCC1(c2cccc(-c3cc(C)ncc3C)c2)C2=C(CC(C)(C)CC2=O)Nc2n[nH]c(C(F)(F)F)c21 (centres unmarked) [Compound 947363]
≤ 100 nM

Another compound: CCC1(c2cccc(C(F)(F)F)c2)C2=C(CC(C)(C)N(C)C2=O)Nc2n[nH]cc21 (centres unmarked) [Compound 826790]
100 to 1000 nM

Another compound: Cc1cc(C)cc(C(=O)N2CC3(C2)C[C@]2(CO3)C3=C(CC(C)(C)CC3=O)Nc3n[nH]cc32)c1 [Compound 948223]
100 to 1000 nM

Another compound: Cn1cc(-c2cccc([C@@]3(C)C4=C(CC(C)(C)CC4=O)Nc4n[nH]c(CC(C)(C)C)c43)c2)cn1 [Compound 126367]
> 5000 nM

Another compound: CC[C@]1(c2cccc(-c3ccnnc3)c2)C2=C(CC(C)(C)CC2=O)Nc2n[nH]cc21 [Compound 929454]
100 to 1000 nM

Another compound: CCC1(c2cccc(-c3ccncc3F)c2)C2=C(CC(C)(C)CC2=O)Nc2n[nH]c(C)c21 (centres unmarked) [Compound 913052]
≤ 100 nM

Another compound: CC[C@]1(c2cccc(-c3ccnc(C)c3C)c2)C2=C(CC(C)(C)NC2=O)Nc2n[nH]cc21 [Compound 948184]
100 to 1000 nM

Another compound: CC[C@@]1(c2cccc(-c3ccncc3C)c2)C2=C(CC(C)(C)NC2=O)Nc2n[nH]c(C)c21 [Compound 947414]
100 to 1000 nM
